Each recorded value in this set is attributed to patent US8822517B2.

# Target Of Assay: serotoninergic 5-HT2A receptor (Homo sapiens, UniProt P28223)
# Sequence (P28223 whole entry): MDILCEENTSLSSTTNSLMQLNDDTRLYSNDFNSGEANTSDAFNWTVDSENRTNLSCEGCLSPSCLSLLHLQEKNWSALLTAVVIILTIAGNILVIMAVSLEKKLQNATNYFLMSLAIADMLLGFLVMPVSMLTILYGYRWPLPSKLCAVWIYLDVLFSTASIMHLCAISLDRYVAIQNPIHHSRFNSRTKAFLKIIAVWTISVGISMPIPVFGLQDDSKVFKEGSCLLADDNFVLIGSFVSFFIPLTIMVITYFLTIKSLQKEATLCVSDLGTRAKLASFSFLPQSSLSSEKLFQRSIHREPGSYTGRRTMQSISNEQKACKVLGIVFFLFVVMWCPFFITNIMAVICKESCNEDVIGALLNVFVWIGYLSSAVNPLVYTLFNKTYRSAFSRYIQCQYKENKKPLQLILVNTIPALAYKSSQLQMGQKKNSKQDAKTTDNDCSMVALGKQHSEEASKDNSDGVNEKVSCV
# Assay: Binding assay 5-HT2A (h), [3H]ketanserin, HEK-293 cells
# Parameters: expressed in transfected cells; host or cells: HEK-293 cells
# Assay Setup: read-out: 5-HT2A
Readout: inhibition at 1 µM (%)
One number for each entry, in %.

Example cases with answers are listed next.
Entry under review: O=S(=O)(NCCCN1CCC(c2noc3cc(F)ccc23)CC1)c1cccc(Cl)c1 [Compound 106] . Reported inhibition at 1 µM?
97

Entry under review: O=S(=O)(NCCCCN1CCN(c2noc3ccccc23)CC1)c1ccc2c(c1)CCO2 [Compound 289] . Reported inhibition at 1 µM?
94

Entry under review: O=S(=O)(NCCCN1CCC(c2noc3cc(F)ccc23)CC1)c1cc2cccnc2[nH]1 [Compound 357] . Reported inhibition at 1 µM?
101

Entry under review: O=S(=O)(NCCN1CCC(c2noc3cc(F)ccc23)CC1)c1ccc2ccccc2c1 [Compound 24] . Reported inhibition at 1 µM?
100

For each of the compounds below, note its inhibition at 1 µM.
1. Cc1cccc(S(=O)(=O)NCCCN2CCC(c3noc4cc(F)ccc34)CC2)c1 [Compound 22]
2. O=S(=O)(NCCCCN1CCN(c2nsc3ccccc23)CC1)c1ccc(F)cc1 [Compound 225]
3. O=S(=O)(NCCCCN1CCN(c2cccc3c2OCCO3)CC1)c1ccc2cn[nH]c2c1 [Compound 402]
4. Cc1[nH]c2ccc(Cl)cc2c1C1=CCN(CCCNS(=O)(=O)c2cccc3ccccc23)CC1 [Compound 441]

[99, 84, 76, 57]

---

Would you kindly list inhibition at 1 µM for each of these compounds?
# Target Of Assay: dopaminergic D3 receptor (Homo sapiens, UniProt P35462)
# Sequence (P35462 whole entry): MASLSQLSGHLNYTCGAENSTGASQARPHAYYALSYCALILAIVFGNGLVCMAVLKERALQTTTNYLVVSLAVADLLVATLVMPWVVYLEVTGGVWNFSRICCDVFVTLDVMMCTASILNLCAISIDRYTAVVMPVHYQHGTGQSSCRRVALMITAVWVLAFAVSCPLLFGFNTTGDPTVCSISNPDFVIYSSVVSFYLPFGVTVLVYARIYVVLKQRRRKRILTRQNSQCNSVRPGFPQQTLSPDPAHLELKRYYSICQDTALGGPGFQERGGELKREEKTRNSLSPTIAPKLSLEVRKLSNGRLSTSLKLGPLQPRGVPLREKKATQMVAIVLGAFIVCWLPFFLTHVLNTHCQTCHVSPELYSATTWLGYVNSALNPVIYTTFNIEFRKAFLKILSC
# Assay: Binding assay D3 (h), [3H]methyl-spiperone, CHO cells
# Parameters: expressed in transfected cells; host or cells: CHO cells
# Assay Setup: read-out: D3 [%]
Answers are plain numbers, in %.

Example cases with answers are listed next.
Item: O=S(=O)(NCCCCN1CCN(c2cccc3c2OCCO3)CC1)c1ccc(F)c(Cl)c1 Test system: dopaminergic D3 receptor (Homo sapiens, UniProt P35462) Read-out: inhibition at 1 µM Value: ?
93

Item: O=S(=O)(NCCCCN1CCN(c2cccc3c2OCCO3)CC1)c1cccc(Cl)c1 Test system: dopaminergic D3 receptor (Homo sapiens, UniProt P35462) Read-out: inhibition at 1 µM Value: ?
81

Item: O=S(=O)(NCCCCN1CCC(c2noc3cc(F)ccc23)CC1)c1cccc(F)c1 Test system: dopaminergic D3 receptor (Homo sapiens, UniProt P35462) Read-out: inhibition at 1 µM Value: ?
97

Item: O=S(=O)(NCCCCN1CCC(c2noc3cc(F)ccc23)CC1)c1ccc2c(c1)OCCO2 Test system: dopaminergic D3 receptor (Homo sapiens, UniProt P35462) Read-out: inhibition at 1 µM Value: ?
98

Item: O=S(=O)(NCCCN1CCN(c2nsc3ccccc23)CC1)c1c[nH]c2ncccc12 Test system: dopaminergic D3 receptor (Homo sapiens, UniProt P35462) Read-out: inhibition at 1 µM Value: ?
82

Item: O=S(=O)(NCCCCN1CCN(c2cccc3[nH]ccc23)CC1)c1ccc(F)c(F)c1 Test system: dopaminergic D3 receptor (Homo sapiens, UniProt P35462) Read-out: inhibition at 1 µM Value: ?
98

Item: O=S(=O)(NCCCCN1CCN(c2noc3ccccc23)CC1)c1cccc(C(F)(F)F)c1 Test system: dopaminergic D3 receptor (Homo sapiens, UniProt P35462) Read-out: inhibition at 1 µM Value: ?
70

Item: O=S(=O)(NCCCN1CCN(c2nsc3ccccc23)CC1)c1cc2ccccc2s1 Test system: dopaminergic D3 receptor (Homo sapiens, UniProt P35462) Read-out: inhibition at 1 µM Value: ?
98

For each of the compounds below, note its inhibition at 1 µM.
1. O=S(=O)(NCCN1CCN(c2nsc3ccccc23)CC1)c1cccc2ccccc12
2. O=S(=O)(NCCCCN1CCN(c2cccc3c2OCCO3)CC1)c1cccc2ccccc12
3. O=c1[nH]c2cccc(N3CCN(CCCNS(=O)(=O)c4ccc(Cl)cc4)CC3)c2[nH]1

1. 90
2. 89
3. 104

---

# Target Of Assay: serotoninergic receptor 5-HT2C (Homo sapiens)
# Construct: expressed in transfected cells; host or cells: HEK-293 cells
# Sequence (P28335 33-458): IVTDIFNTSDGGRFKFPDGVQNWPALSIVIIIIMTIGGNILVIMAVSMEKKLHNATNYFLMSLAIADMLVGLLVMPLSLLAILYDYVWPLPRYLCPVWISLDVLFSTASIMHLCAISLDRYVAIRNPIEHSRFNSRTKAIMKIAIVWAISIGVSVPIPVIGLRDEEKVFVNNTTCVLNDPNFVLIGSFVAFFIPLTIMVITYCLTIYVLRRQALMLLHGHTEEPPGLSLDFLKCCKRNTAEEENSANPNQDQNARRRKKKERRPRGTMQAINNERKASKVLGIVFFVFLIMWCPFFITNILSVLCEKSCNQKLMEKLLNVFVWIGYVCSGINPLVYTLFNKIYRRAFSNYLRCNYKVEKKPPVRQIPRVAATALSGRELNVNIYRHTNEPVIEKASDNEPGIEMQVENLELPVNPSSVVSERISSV
# Assay: Binding assay 5-HT2C (h), [3H]mesulergine, HEK-293 cells
# Assay Setup: read-out: 5-HT2C [%]
Would you kindly list inhibition at 1 µM for each of these compounds?
One number for each entry, in %.

Entry under review: O=c1[nH]c2cccc(N3CCN(CCCNS(=O)(=O)c4cccc(Cl)c4)CC3)c2[nH]1 [Compound 174] . Reported inhibition at 1 µM?
0

For each of the compounds below, note its inhibition at 1 µM.
1. Cc1cccc(S(=O)(=O)NCCCN2CCN(c3nsc4ccccc34)CC2)c1 [Compound 7]
2. O=S(=O)(NCCN1CCN(c2nsc3ccccc23)CC1)c1ccc2ccccc2c1 [Compound 10]
3. CC(C)(C)c1ccc(S(=O)(=O)NCCCN2CCN(c3nsc4ccccc34)CC2)cc1 [Compound 256]

1. 89
2. 54
3. 94

---

# System: adrenergic α1 receptor
# Assay: Binding assay α1 (non-selective), [3H]prazosin, rat cerebral cortex
# Assay Setup: percent inhibition of control specific binding; compounds tested at 1×10^−6 M
Readout: α1 [%] (%)
One number for each entry, in %.

For each of the molecules below, note its α1 [%].
1. O=S(=O)(NCCCN1CCC(c2noc3cc(F)ccc23)CC1)c1ccc2ccccc2c1
2. O=S(=O)(NCCCCN1CCN(c2cccc3c2OCCO3)CC1)c1ccc(Cl)s1
3. O=S(=O)(NCCCCN1CCN(c2nsc3ccccc23)CC1)c1csc2ccccc12
4. O=S(=O)(NCCCCN1CCC(c2noc3cc(F)ccc23)CC1)c1csc2ccccc12
5. N#Cc1ccc(S(=O)(=O)NCCCCN2CCC(c3noc4cc(F)ccc34)CC2)cc1
6. O=S(=O)(NCCCN1CCN(c2nsc3ccccc23)CC1)c1cc2ccccc2s1
7. O=S(=O)(NCCCN1CCC(c2noc3cc(F)ccc23)CC1)c1ccc2c(c1)OCCO2

1: 97; 2: 97; 3: 96; 4: 100; 5: 99; 6: 95; 7: 105

---

# Target Of Assay: dopaminergic D2 receptor (Homo sapiens, UniProt P14416)
# Sequence (P14416 1-414 isoform P14416-2): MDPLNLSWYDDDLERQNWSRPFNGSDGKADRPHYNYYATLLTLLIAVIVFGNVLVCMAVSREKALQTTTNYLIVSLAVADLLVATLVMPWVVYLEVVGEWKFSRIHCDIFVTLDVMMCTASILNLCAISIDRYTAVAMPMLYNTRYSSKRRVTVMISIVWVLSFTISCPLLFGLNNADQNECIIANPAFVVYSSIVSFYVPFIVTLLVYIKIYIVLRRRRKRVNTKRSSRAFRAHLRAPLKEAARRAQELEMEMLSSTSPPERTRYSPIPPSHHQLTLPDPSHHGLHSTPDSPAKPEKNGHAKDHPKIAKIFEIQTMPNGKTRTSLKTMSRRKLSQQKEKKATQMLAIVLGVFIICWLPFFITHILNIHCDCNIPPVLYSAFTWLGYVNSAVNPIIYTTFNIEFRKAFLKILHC
# Assay: Binding assay D2S (h), [3H]methyl-spiperone, HEK-293 cells
# Design: expressed in transfected cells; host or cells: HEK-293 cells
# Assay Setup: read-out: D2 [%]
Would you kindly list inhibition at 1 µM for each of these molecules?
Please state the number and follow it with the unit.

Example cases with answers are listed next.
Entry under review: O=S(=O)(NCCCCN1CCN(c2cccc3[nH]ccc23)CC1)c1ccc(C(F)(F)F)cc1 [Compound 360] . Reported inhibition at 1 µM?
99%

Entry under review: COc1cccc(S(=O)(=O)NCCCCN2CCN(c3nsc4ccccc34)CC2)c1 [Compound 232] . Reported inhibition at 1 µM?
92%

Entry under review: Cc1[nH]c2ccc(Cl)cc2c1C1=CCN(CCCCNS(=O)(=O)c2cccc(F)c2)CC1 [Compound 139] . Reported inhibition at 1 µM?
52%

Entry under review: O=S(=O)(NCCCCN1CCC(c2noc3cc(F)ccc23)CC1)c1cnc2ccccn12 [Compound 322] . Reported inhibition at 1 µM?
96%

Entry under review: O=S(=O)(NCCCN1CCC(c2noc3cc(F)ccc23)CC1)c1ccc2cc(Cl)ccc2c1 [Compound 98] . Reported inhibition at 1 µM?
101%

Entry under review: O=S(=O)(NCCCN1CCC(c2noc3cc(F)ccc23)CC1)c1cccc(Cl)c1 [Compound 106] . Reported inhibition at 1 µM?
108%

--- query ---
Entry under review: O=S(=O)(NCCCN1CCC(c2noc3cc(F)ccc23)CC1)c1ccc(OC(F)(F)F)cc1 [Compound 336] . Reported inhibition at 1 µM?
97%

---

# Target Of Assay: serotoninergic 5-HT7 receptor (Homo sapiens, UniProt P34969)
# Sequence (P34969 whole entry): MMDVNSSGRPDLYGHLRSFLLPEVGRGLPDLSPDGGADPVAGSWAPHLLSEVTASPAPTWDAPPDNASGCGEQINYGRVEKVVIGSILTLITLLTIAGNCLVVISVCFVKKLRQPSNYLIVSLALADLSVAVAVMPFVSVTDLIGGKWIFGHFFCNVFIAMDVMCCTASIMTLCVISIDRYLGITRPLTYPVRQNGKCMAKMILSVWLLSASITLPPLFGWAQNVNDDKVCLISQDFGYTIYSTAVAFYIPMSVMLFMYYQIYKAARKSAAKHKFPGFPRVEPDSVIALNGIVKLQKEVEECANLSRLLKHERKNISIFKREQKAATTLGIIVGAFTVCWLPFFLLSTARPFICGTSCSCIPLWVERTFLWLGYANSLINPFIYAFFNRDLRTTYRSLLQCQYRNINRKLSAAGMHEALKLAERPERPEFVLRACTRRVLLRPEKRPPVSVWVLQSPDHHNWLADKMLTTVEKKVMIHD
# Assay: Binding assay 5-HT7 (h), [3H]LSD, CHO cells
# Design: expressed in transfected cells; host or cells: CHO cells
# Assay Setup: read-out: 5-HT7
Would you kindly list inhibition at 1 µM for each of these molecules?
One number for each entry, in %.

Example cases with answers are listed next.
Entry under review: O=S(=O)(NCCCCN1CCN(c2noc3ccccc23)CC1)c1ccc2c(c1)CCO2 [Compound 289] . Reported inhibition at 1 µM?
91

Entry under review: O=S(=O)(NCCCCN1CCC(c2noc3cc(F)ccc23)CC1)c1ccc2cn[nH]c2c1 [Compound 319] . Reported inhibition at 1 µM?
90

Entry under review: O=c1[nH]c2cccc(N3CCN(CCCCNS(=O)(=O)c4cccc5ccccc45)CC3)c2[nH]1 [Compound 418] . Reported inhibition at 1 µM?
89

Entry under review: O=S(=O)(NCCCN1CCC(c2noc3cc(F)ccc23)CC1)c1cccc(F)c1 [Compound 108] . Reported inhibition at 1 µM?
90

Entry under review: COc1cccc(S(=O)(=O)NCCCN2CCN(c3nsc4ccccc34)CC2)c1 [Compound 255] . Reported inhibition at 1 µM?
91

For each of the molecules below, note its inhibition at 1 µM.
1. O=S(=O)(NCCCN1CCC(c2noc3cc(F)ccc23)CC1)c1cccc(Br)c1 [Compound 110]
2. O=S(=O)(NCCCCN1CCN(c2cccc3c2OCCO3)CC1)c1cccc(O)c1 [Compound 393]
3. O=S(=O)(NCCCN1CCC(c2noc3cc(F)ccc23)CC1)c1cc2ccccc2o1 [Compound 349]

1: 91; 2: 91; 3: 91
